METHOD NOTES: yeast display, Sf9 membrane polyspecificity reagent, FACS + sequencing; frameworks hold sequencing errors
ENDPOINT: polyreactivity (PSR sort gate)

MACROMOLECULE SEQUENCE	VALUE OBSERVED
QVQLVESGGGLVQAGGSLRLSCAASGITLNRNAMGWYKQAPGKERELVARISRRGGTTYYADSVKGRFTISRDNAKNTVYLQLNSLKPEDSAVYYCAKVRRRWGYPSYSYPYGYWGQGTQVTVSS	high polyreactivity
QVLLQESGGLVQAGCSLRMSCAASGSISTALSMGWYRQAPGKERELVATISDGASTNYADSVKGRFTISRVNAKNTVYLQMNSLKPEDTEVYYCAAQSQYRPDHRYWGQGTQVTVSS	high polyreactivity
QVQLVESGGGLVQAGGSLRLSCAASGSIFVPYAMGWYRQAPGKERELVAAISRGGDTNYADSVKGRFTISRDNAKNTVYLQMNSLKPEDTAVYYCNRARHQSSRWHGGYYYWGQGTQVTVSS	low polyreactivity
QVQLVESGGGLVQAGGSLRLTCAASGFILSSNAMGWYRQAPGKERELVAAITRSGGSTYYADSVKGRFTISRDNAKNTVYLEMNSLKPEDTAVYYCNRLYYSGSGASLDYWGQGTQVTVSS	high polyreactivity
QVQLVESGGGLVQAGGSLRISCAASGFTFSQYAMGRYRQAPGKERELVAAISVSGGTTYYADSVKGRFTISRDNAKNTVYLQMNSLKPEDTAVYYCDARTPFSSSPYVNTSGYYYWGQGSQVTVSS	high polyreactivity
QVQLVESGGGLVQAGGSLRLSCAASGSIFSKNAIGWYRQAPGKERELVDAISASGASTYYADSVKGRFTISRDNEKNTVYLQMNSLKPEDTAVYYCNADVSGVSSYGRSYEFYYWGQGTQVTVSS	low polyreactivity
QVQLVESGGGLVQAGGSLRLSCAASGIIFPDYVMGWYRQAPGKERELVATITNDSSTTYADSVKGRFTISRDNAKNTVYLQMNSLKPEDTAVYYCAAPVDYQGDYWGQGTQVTVSS	low polyreactivity
QVQLVESGGGLVQAGGSLRLSCAASGGTLFQNAMGWYRQAPGKERELVATIRVSGGITYYADSVKGRFTISRDNAKNTVYLQMNSLKPEDTAVYYCAKDSADSRAVGDVLTFDYWGQGTQVTVSS	low polyreactivity
QVQLVESGGGLVQAGGSLRLSCAASGFTFWQYAMGWYRQAPGKERELVAAISGSGSSTYYADSVKGRFTISRDNAKNTVYFQMNSLKPEDTAVYYCATAISRYGRYYYWGQGTQVTVSS	high polyreactivity
QVQLVESGGGLVQAGGSLRLSCAASGSIFYSYAMGRYRQAPGKERELVAAITKSSGSTYYADSVKGRFTISRDNAKNTVYLQMNSLKPEDTAVYYCAATRYRPVRLYYWGQGTQVTVSS	high polyreactivity
QVQLLESGGGLDQAGGSLRLTSAASGSIFYGYAMGWYRQAPRKERELVAAISYSGDRTYYADSVKGRFTISRDNAKNTVYLQMNSLKPEDTAVYYCAARKHGGTVRGRRDYWGQGTQVTVSS	high polyreactivity
QVQLVESGGGLDQAGGSLRLSCAASGRIYYNYAMGWYRQSPVKERELVAAISGSGGSTYYADSVKWRLTISRDNAKNTVYLLMNSLKPEDTAVYYCSTSGPQYYSRNFDYWGQGTQVTVSS	low polyreactivity
QVQLVESGGGLVQAGGSLRLTCAASGRTFYVNAMGWYRQAPGKEREFVAAISRRGGSTYYADSVKGRFTISRDNAKNTVYLQMNCLKPEDTAVYYCNAAYSSRYDYWGQGTQVTVSS	high polyreactivity
QVQLVESGGGFVQAGGSLRLSCAASGRICGYYAMGWFRQAPGKERELVAAISSSGGSTYYADSVKGRFTISRDTAKNTVYLQINSQKPEYTAVYYCNVDWYDNGYGGYDYWRQGTQVTVSS	low polyreactivity
QVQLVESGGGLVQAGGSLRLSCAASGSTFASNTMGWYRQAPGKERELVAAITQSGGTTYYAESVKGRFTISRDNAKNTVTLQMNSLKPEDTAVYYCATDVGYFYTVVGGYDYWGQGTQVTVSS	low polyreactivity
QVQLVESGGGLVQAGGSLRLSCAASGFTFLYNAMGWYRQAPGKERELVASINSGGSTNYADSVKGRFTISRDNAKNTVYLQMNSLKPEDTAVYYCAADKGPLQRGFDYWGQGTQVTVSS	low polyreactivity
QVQLVESGGGLVQAGGSLRLSCAASGRIFRRNTMGWYRQAPGKERELVAAITSSGGSTYADSVKGRFTISRDNAKNTVYLQMKSLKPEDTAVYYCATYVAYHRGYRTYDHWGQGTQVTVSS	low polyreactivity
QVQLVESGGGLVQAGGSLRLSCAASGIIFDDYALGWYRPAPGKVRELVAAINSNGGTTYYADSVKGRFTISRDNAKNTVYLQMNSLKPEDTAVYYCAARPYRIGRYGYDYDYWGQGTQVTVSS	high polyreactivity
QVQLVESGGGVVQAGGSLRLSCAASGSIFTYYAMGWYRQAPGKERELVAAISYGGGSTNYADSVKGRFTISRDNAKYTVYLQMNSLKPEDTAVYYCNRVLGVNYGYWGQGTQVTVSS	high polyreactivity
QVQLVESGGGLVQAGGSLRLSCAASGSIFGYNAMGWYRQAPGKERELVAAISYSGGSTYYADSVKWRFTISRDNAKNTVYLQMNSLKPEDTAVYYCNKYIRRYLIYGSWGQGTQVTVSS	high polyreactivity
QVQLVESGGGLVQAGGSLRLSCAASGFIFWYYAMGWYRQAPGKERELVATITTGGGTNYADSVKGRFTISRDNAKNTVYLQMNSLKPEDTAVYYCNADFRWYAEDDYWGQGTQVTVSS	low polyreactivity
